- experimental.system: Cytochrome P450 3A4 (Homo sapiens) (UniProt P08684)
- Sequence (P08684 whole entry, looked up): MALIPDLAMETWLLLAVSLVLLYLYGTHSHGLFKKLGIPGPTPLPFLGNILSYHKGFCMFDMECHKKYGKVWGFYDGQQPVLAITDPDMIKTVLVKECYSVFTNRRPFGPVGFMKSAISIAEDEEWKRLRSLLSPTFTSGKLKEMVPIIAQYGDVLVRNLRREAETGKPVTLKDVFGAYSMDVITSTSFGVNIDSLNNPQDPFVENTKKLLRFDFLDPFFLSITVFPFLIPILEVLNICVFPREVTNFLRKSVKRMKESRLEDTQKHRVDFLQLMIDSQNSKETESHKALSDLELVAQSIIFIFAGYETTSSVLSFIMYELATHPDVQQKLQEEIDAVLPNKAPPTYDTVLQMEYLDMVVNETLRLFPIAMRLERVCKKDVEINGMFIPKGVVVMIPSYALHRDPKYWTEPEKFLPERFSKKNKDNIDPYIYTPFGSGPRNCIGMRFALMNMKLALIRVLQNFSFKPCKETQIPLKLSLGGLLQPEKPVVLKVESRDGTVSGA
- assay.details: Cytochrome P450 family 3 subfamily A member 4 (CYP3A4) small molecule antagonists: luciferase qHTS assay (AID 1645841); also: nearly all actives have a fitted effect of over 45% in size
- stated.conditions: P450-Glo CYP3A4 enzyme assay, luciferin luminescence; series mostly up to 57.4 µM
Records with an inconclusive call do not appear. Calls of active or inactive are those of the source. Calls follow the shape of the dose curve; as a rule, active = well fitted inhibition curve with a large enough effect in the repeat runs; inconclusive = weak or mixed curves; inactive = no such curve, though single readings can be large or run the other way.
Outcomes: YES (active), NO (inactive)

{"columns": ["item.smiles", "experimental.system", "category"],
 "data": [
  ["Fc1ccc(CN2CCC(Nc3ccc(C(F)(F)F)nn3)CC2)cc1F", "Cytochrome P450 3A4 (Homo sapiens) (UniProt P08684)", "NO"],
  ["CCN1CCC[C@@H]1CNC(=O)c1ccc2c(c1)NC(=O)c1cccc(C)c1S2", "Cytochrome P450 3A4 (Homo sapiens) (UniProt P08684)", "NO"],
  ["O=C(NC1CCC1)c1ccc(C#Cc2cccc(F)c2)nc1", "Cytochrome P450 3A4 (Homo sapiens) (UniProt P08684)", "NO"],
  ["Cc1ccc(C(=O)Nc2ccc(CN3CCN(C)CC3)c(C(F)(F)F)c2)cc1C#Cc1cnc2[nH]ncc2c1", "Cytochrome P450 3A4 (Homo sapiens) (UniProt P08684)", "YES"],
  ["NS(=O)(=O)c1ccc(N2CCN(CC[C@@H]3OCCc4ccccc43)CC2)cc1", "Cytochrome P450 3A4 (Homo sapiens) (UniProt P08684)", "NO"],
  ["C=CC(=O)N1CCC(Oc2cc3c(Nc4ccc(Cl)c(Cl)c4F)ncnc3cc2OC)CC1", "Cytochrome P450 3A4 (Homo sapiens) (UniProt P08684)", "YES"]
]}

Data origin, for the record: PubChem BioAssay (NCATS)
